The origin of these recorded values is the RNAGym collection of RNA variant scans (doi:10.7554/elife.80360).

B1: HDV Ribozyme (parent)
chain: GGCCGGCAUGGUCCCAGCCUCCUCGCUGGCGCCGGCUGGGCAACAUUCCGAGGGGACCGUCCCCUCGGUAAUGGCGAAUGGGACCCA

Variants of: B1
experiment.description: self-cleavage, relative activity (ratio to wild type); higher = more cleavage; co-transcriptional
Reported self-cleavage by item:
Answer field: number only, no words.

See these solved cases before continuing.
G6C U23A | 0.0615
G31C C58A | 0.325
U46A U65C | 0.65
C44G C58A | 1.07
C44U C62A | 0.665

Please indicate self-cleavage recorded for U47A A70U 0.697

Give the reported value of self-cleavage for this record: C19G U20G 0.138
